ASSAY: cells
MEASUREMENT CONTEXT: Homo sapiens, MV4-11, 48 h
Description: Growth inhibition of human MV411 cells after 48 hrs by XTT assay
# if measured GI50 < 800 nM: true  # else: false

Use the examples below as a reference point.
molecular_string=CC1=CC(=O)N(Nc2nc(-c3cccs3)nc3sc(-c4ccc(O)cc4)c(C)c23)C1=O discrete_label=true
molecular_string=CC1=CC(=O)N(Nc2nc(-c3ccc(N(C)C)cc3)nc3scc(-c4ccccc4)c23)C1=O discrete_label=true
molecular_string=CC1=CC(=O)N(Nc2nc(-c3cccs3)nc3sc(-c4cccc(O)c4)c(C)c23)C1=O discrete_label=true
molecular_string=CC1=CC(=O)N(Nc2nc(-c3cccs3)nc3sc(C(N)=O)c(C)c23)C1=O discrete_label=true

Quick check: GI50 of CC1=CC(=O)N(Nc2nc(Cc3cccs3)nc3scc(-c4cccs4)c23)C1=O under 800 nM? false
